Where do these numbers come from? They come from patent US12410179B2.

target: TNFα (Homo sapiens, UniProt P01375); assay: TNFα human whole blood screening assay (CD11b on granulocytes, zymosan challenge); format: cell-based; design: a human whole blood assay driven by endogenously expressed TNFα; from tissue; host or cells: human whole blood; details: human whole blood IC50 multiplied by unbound fraction from plasma protein binding; read-out: CD11b in hWB, free IC50
Sequence (P01375 77-233 limits assumed): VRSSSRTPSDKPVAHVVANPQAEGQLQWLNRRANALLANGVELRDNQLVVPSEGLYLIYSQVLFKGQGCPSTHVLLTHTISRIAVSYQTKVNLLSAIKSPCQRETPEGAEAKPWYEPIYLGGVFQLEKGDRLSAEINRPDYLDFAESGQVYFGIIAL
pIC50: −log10 of the molar value.
endpoint: pIC50

P: CN1C(=O)c2cccc(OC(F)F)c2[C@H]2C[C@@H]1c1nc3ccc(-c4cnc(C5(N)CCC5)nc4)cc3n12 [Comp. Ex #1, reference compound]
Q: CN1C(=O)c2cccc(OC(F)F)c2[C@H]2C[C@@H]1c1nn3ccc(-c4cnc(C5(N)CCC5)nc4)cc3c12
Lab log: flag the item ( P or Q ) with the smaller pIC50 figure. Reply with the label of the item you choose.
P

###

molecular target: TNFα (Homo sapiens); assay: HEK-Blue hTNFα reporter assay; type: cell-based; parameters: purchased R&D biosystem (R&D Systems) 210-TA-020/CF; details: HEK-Blue hTNFα reporter cells, SEAP readout; read-out: IC50 Range
endpoint: IC50

Entry CN1C(=O)c2cccc(OC(F)F)c2[C@H]2C[C@@H]1c1nn3ccc(-c4cnc(C5(O)CCOC5)nc4)nc3c12 (stereo partly drawn) has what IC50?
25 to 100 nM

Entry O=C1N[C@@H]2C[C@H](c3c(OC(F)F)cccc31)c1c2nn2ccc(-c3cnc(C4(O)CCC4)nc3)cc12 has what IC50?
< 25 nM

Entry [2H]C([2H])([2H])N1C(=O)c2cccc(OC(F)F)c2[C@H]2C[C@@H]1c1nn3ccc(-c4cnc([C@]5(N)C[C@@H](C#N)C5)nc4)cc3c12 has what IC50?
< 25 nM

Entry CN1CCN(c2ncc(-c3ccn4nc5c(c4c3)[C@@H]3C[C@H]5N(C)C(=O)c4cccc(OC(F)F)c43)cn2)CC1 has what IC50?
< 25 nM

Entry [2H]C([2H])([2H])N1C(=O)c2cccc(OC(F)F)c2[C@H]2C[C@@H]1c1nn3cc(F)c(-c4cnc([C@]5(N)C[C@@](C)(O)C5)nc4)nc3c12 has what IC50?
< 25 nM

Entry CN1C(=O)c2cccc(OC(F)F)c2[C@H]2C[C@@H]1c1nn3ccc(-c4cnc([C@@H](O)CN5CCC5)nc4)cc3c12 has what IC50?
25 to 100 nM

###

assay: Caco-2 assay (permeability); assay type: in vitro ADME; conditions: human, Caco-2, pH 7.4; apical to basolateral, 5 μM, 2 hours
endpoint: Papp A→B at 2 h, 5 μM (×10⁻⁶ cm/s)

P: CN1C(=O)c2cccc(OC(F)F)c2[C@H]2C[C@@H]1c1nc3ccc(-c4ccc(P(C)(C)=O)nc4)cc3n12 [Comp. Ex #4, reference compound]
Q: CN1C(=O)c2cccc(OC(F)F)c2[C@H]2C[C@@H]1c1nn3ccc(-c4ccc(P(C)(C)=O)nc4)cc3c12
Which shows the larger Papp A→B at 2 h, 5 μM value: P or Q ? Reply with the label of the item you choose.
Q
(Q: 1.7 ×10⁻⁶ cm/s, P: 0.6 ×10⁻⁶ cm/s)

###

molecular target: TNFα (Homo sapiens); assay: HEK-Blue hTNFα reporter assay; format: cell-based; design: purchased R&D biosystem (R&D Systems) 210-TA-020/CF; settings: HEK-Blue hTNFα reporter cells; read-out: TNFα reporter, Emax
endpoint: Emax (%)

>  <compound>
CN1C(=O)c2cccc(OC(F)F)c2[C@H]2C[C@@H]1c1nc3ccc(-c4cnc([C@]5(N)C[C@@](C)(C#N)C5)c(F)c4)cc3n12 [Comp. Ex #8, reference compound]

>  <assay_target>
TNFα (Homo sapiens)

>  <endpoint>
Emax

>  <observed>
80

$$$$
>  <compound>
CN1C(=O)c2cccc(OC(F)F)c2[C@H]2C[C@@H]1c1nc3ccc(-c4cnc(C5(N)CCC5)nc4)cc3n12 [Comp. Ex #1, reference compound]

>  <assay_target>
TNFα (Homo sapiens)

>  <endpoint>
Emax

>  <observed>
96

$$$$
>  <compound>
CN1C(=O)c2cccc(OC(F)F)c2[C@H]2C[C@@H]1c1nc3ccc(-c4cnc([C@]5(N)C[C@@](C)(CO)C5)nc4)cc3n12 [Comp. Ex #7, reference compound]

>  <assay_target>
TNFα (Homo sapiens)

>  <endpoint>
Emax

>  <observed>
92

$$$$
>  <compound>
CN1C(=O)c2cccc(OC(F)F)c2[C@H]2C[C@@H]1c1nn3ccc(-c4cnc(C5(N)CCC5)nc4)cc3c12 [Example 15]

>  <assay_target>
TNFα (Homo sapiens)

>  <endpoint>
Emax

>  <observed>
95

$$$$
>  <compound>
CN1C(=O)c2cccc(OC(F)F)c2[C@H]2C[C@@H]1c1nn3cnc(-c4cnc([C@]5(N)C[C@@](C)(C#N)C5)c(F)c4)cc3c12 [Example 59]

>  <assay_target>
TNFα (Homo sapiens)

>  <endpoint>
Emax

>  <observed>
98

$$$$
>  <compound>
CN1C(=O)c2cccc(OC(F)F)c2[C@H]2C[C@@H]1c1nc3ccc(-c4cnc([C@]5(N)C[C@@](C)(O)C5)c(F)c4)cc3n12 [Comp. Ex #2, reference compound]

>  <assay_target>
TNFα (Homo sapiens)

>  <endpoint>
Emax

>  <observed>
85

$$$$

###

target: TNFα (Homo sapiens); test: HEK-Blue hTNFα reporter assay; format: cell-based; parameters: purchased R&D biosystem (R&D Systems) 210-TA-020/CF; details: HEK-Blue hTNFα reporter cells; read-out: TNFα reporter, IC50
endpoint: IC50 (nM)

Sample answers from the record:
>  <compound>
CN1C(=O)c2cccc(OC(F)F)c2[C@H]2C[C@@H]1c1nn3ccc(-c4cnc(C5(N)CCC5)nc4)cc3c12

>  <result_units>
nM

>  <IC50>
4.1

$$$$
>  <compound>
CN1C(=O)c2cccc(OC(F)F)c2[C@H]2C[C@@H]1c1nn3cnc(-c4cnc([C@]5(N)C[C@@](C)(O)C5)c(F)c4)cc3c12

>  <result_units>
nM

>  <IC50>
3.6

$$$$

1: CN1C(=O)c2cccc(OC(F)F)c2[C@H]2C[C@@H]1c1nn3cnc(-c4cnc([C@]5(N)C[C@@](C)(C#N)C5)c(F)c4)cc3c12
2: CN1C(=O)c2cccc(OC(F)F)c2[C@H]2C[C@@H]1c1nc3ccc(-c4cnc([C@]5(N)C[C@@](C)(C#N)C5)nc4)cc3n12 [Comp. Ex #5, reference compound]
3: CN1C(=O)c2cccc(OC(F)F)c2[C@H]2C[C@@H]1c1nn3ccc(-c4cnc([C@]5(O)C[C@@](C)(O)C5)nc4)cc3c12
4: CN1C(=O)c2cccc(OC(F)F)c2[C@H]2C[C@@H]1c1nc3ccc(-c4ccc(P(C)(C)=O)nc4)cc3n12 [Comp. Ex #4, reference compound]
Give the ascending ranking of the items by reported IC50. Write the labels in rank order as requested.
3, 1, 4, 2
(3: 2.3 nM, 1: 4.1 nM, 4: 7.9 nM, 2: 16.1 nM)

P: CN1C(=O)c2cccc(OC(F)F)c2[C@H]2C[C@@H]1c1nc3ccc(-c4cnc([C@]5(N)C[C@@](C)(O)C5)c(F)c4)cc3n12 [Comp. Ex #2, reference compound]
Q: CN1C(=O)c2cccc(OC(F)F)c2[C@H]2C[C@@H]1c1nn3ccc(-c4cnc([C@]5(N)C[C@@](C)(CO)C5)nc4)nc3c12
R: CN1C(=O)c2cccc(OC(F)F)c2[C@H]2C[C@@H]1c1nn3ccc(-c4cnc(C5(O)CCOCC5)nc4)cc3c12
Give the ascending ranking of the items by reported IC50. Write the labels in rank order as requested.
R, P, Q

###

This section presents molecules with their documented IC50 values.
biological target: TNFα (Homo sapiens); assay: HEK-Blue hTNFα reporter assay; type: cell-based; set-up: purchased R&D biosystem (R&D Systems) 210-TA-020/CF; conditions: HEK-Blue hTNFα reporter cells, SEAP readout; read-out: IC50 Range

Sample answers from the record:
>  <chem_smiles>
[2H]C([2H])([2H])N1C(=O)c2cccc(OC(F)F)c2[C@H]2C[C@@H]1c1nn3ccc(-c4cnc([C@]5(O)C[C@@](C)(O)C5)nc4)cc3c12

>  <IC50>
< 25 nM

$$$$
>  <chem_smiles>
C[C@]1(C#N)C[C@](N)(c2ncc(-c3ccn4nc5c(c4c3)[C@@H]3C[C@H]5NC(=O)c4cccc(OC(F)F)c43)cn2)C1

>  <IC50>
< 25 nM

$$$$
>  <chem_smiles>
CN1C(=O)c2cccc(OC(F)F)c2[C@H]2C[C@@H]1c1nn3ccc(-c4cnc([C@@]5(O)CCOC5)nc4)cc3c12

>  <IC50>
< 25 nM

$$$$
>  <chem_smiles>
CN1C(=O)c2cccc(OC(F)F)c2[C@H]2C[C@@H]1c1nn3cc(F)c(-c4ccc(P(C)(C)=O)nc4)nc3c12

>  <IC50>
< 25 nM

$$$$
>  <chem_smiles>
CN1C(=O)c2cccc(OC(F)F)c2[C@H]2C[C@@H]1c1nn3cc(F)c(-c4cnc([C@]5(N)C[C@@](C)(C#N)C5)nc4)nc3c12

>  <IC50>
< 25 nM

$$$$

Attention now shifts to the item below.
Provide value of IC50 for this record tested with TNFα (Homo sapiens): CN1C(=O)c2cccc(OC(F)F)c2[C@H]2C[C@@H]1c1nn3ccc(-c4cnc([C@H](O)C5COC5)nc4)cc3c12
< 25 nM
